protocol notes: Human HepG2 cell viability assay in 384 well format
Format: toxicity, cell-based
Parameters: dose 125 nL, time 70.5 hour; concentration not given beside the values
experimental setup: HepG2 cells, read-out: Inhibition
# cytotoxicity at 70.5 h per record follows
Your answer should be a plain number; it is taken to be in %.

Answered examples (4):
# compound, cytotoxicity at 70.5 h, %
measured = [
    ("O=C(Nc1ccc2c(c1)OCO2)N1CCN(CCc2ccccc2)CC1", -6.84),
    ("CCOc1cc(C)nc(N2CCN(C(=O)C(C)NC(C)=O)CC2)n1 (centres undefined)", -1.89),
    ("CC1c2ncc(COCC3CC3)n2CCN1C(=O)c1ccnnc1 (centres undefined)", -5.45),
    ("CS(=O)(=O)N1C[C@@H]2CCN(C(=O)c3cscn3)[C@@H]2C1", -2.23),
]

Input: Let me know recorded cytotoxicity at 70.5 h for CCC1=NN2C(=N)/C(=C/c3cccc(Cl)c3)C(=O)N=C2S1 , thanks.
Output: -5.39

Input: Let me know recorded cytotoxicity at 70.5 h for O=C1COC2(CCN(c3ccccn3)CC2)CN1Cc1ccccn1 , thanks.
Output: 17.6

Input: Let me know recorded cytotoxicity at 70.5 h for Cc1ccc(CN(C)Cc2ncc(C(C)(C)C)o2)o1 , thanks.
Output: 0.445

Input: Let me know recorded cytotoxicity at 70.5 h for Cc1nn(C)c(C)c1C1CCCN1C(=O)CCCn1cccn1 (centres undefined) , thanks.
Output: -14.1

Origin of measurements: ChEMBL document CHEMBL3507680
